Data origin: PubChem BioAssay AID488890

# experiment_description: growth inhibition of non-replicating M. tuberculosis (AID 488890);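 also: plate controls were DMSO cells for no effect and high antibiotic wells for full effect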
# measurement_setup: Mycobacterium tuberculosis non-replicating, at 25 µM, stronger effect = higher value
Among all 320,000 compounds or so, about 1,300 (0.41%) were called active. Roughly 3% stayed inconclusive and do not appear here. Only a sample is shown. Entries with a potency or affinity are not part of this list.
quantity_measured: inhibition (%)
Unit % implied. Number only.

Q. Read the entry `CCOC(=O)CSc1nnc(CNC(=O)c2cccs2)n1-c1cccc(C)c1` and write its reported inhibition.
A. 33

Q. Read the entry `O=C(Nc1cccc2cccnc12)c1ccc2c(c1)OCCO2` and write its reported inhibition.
A. 16.4

Q. Read the entry `Cc1ccc2c(c1)N=C(c1ccc(Cl)cc1)CO2` and write its reported inhibition.
A. 29

Q. Read the entry `COc1cccc(CN(C)C(=O)Cc2c[nH]c3ccccc23)c1OC` and write its reported inhibition.
A. 5.31

Q. Read the entry `COC(=O)C[C@H](NC(=O)Cn1cnc2c(SC)nc(N)nc21)C(=O)OC` and write its reported inhibition.
A. -10.4

Q. Read the entry `COc1ccc(CCNC(=O)c2nc(-c3cccs3)no2)cc1OC` and write its reported inhibition.
A. 62.8

Q. Read the entry COc1ccc(CCNC(=O)C2CCCN2C(=O)Nc2ccc(Cl)cc2)cc1OC (stereo unspecified) and write its reported inhibition.
A. 20.8

Q. Read the entry `COc1ccc([N+](=O)[O-])cc1NC(=O)c1cncc(Br)c1` and write its reported inhibition.
A. 36.5

Q. Read the entry `COCCNC(=O)Cn1cc(C(=O)c2ccccc2F)c2ccccc21` and write its reported inhibition.
A. 6.99

Q. Read the entry `COc1ccc(OC(=O)c2ccc(OC)c(S(=O)(=O)N3CCOCC3)c2)cc1` and write its reported inhibition.
A. 21.9

Q. Read the entry `CC(C)Cc1cc(C(=O)Nc2ccc3c(c2)OCO3)no1` and write its reported inhibition.
A. 79

Q. Read the entry `Cc1ccc(/C=N/NC(=O)c2ccc(C(=O)N/N=C/c3ccc(C)s3)o2)s1` and write its reported inhibition.
A. -14.7

Q. Read the entry `Cc1ccc2c(c1)N=C(c1ccc(F)cc1)CO2` and write its reported inhibition.
A. 30.4

Q. Read the entry `CSc1ccccc1NC(=O)c1cc(CC(C)C)on1` and write its reported inhibition.
A. 77.5

Q. Read the entry `Cn1c(SCc2nc3ccccc3[nH]2)nnc1-c1cnccn1` and write its reported inhibition.
A. 11

Q. Read the entry `OCCN1CCN(c2nc(NCc3ccco3)c3ccccc3n2)CC1` and write its reported inhibition.
A. 9.79

Q. Read the entry `O=[N+]([O-])c1cnc2ccccc2c1` and write its reported inhibition.
A. -10.7

Q. Read the entry `O=[N+]([O-])c1ccc(Oc2cccc3cccnc23)c([N+](=O)[O-])c1` and write its reported inhibition.
A. 72

Q. Read the entry CC1=C(C(=O)Nc2ccc(C)cc2C)C(c2ccc(C)o2)NC(=O)N1 (stereo unspecified) and write its reported inhibition.
A. -0.04

Q. Read the entry `COc1ccc(C2=Nc3cc(C)ccc3OC2)cc1` and write its reported inhibition.
A. 23.2

Q. Read the entry `CCN(Cc1ccccc1)C(=O)CSc1nc(C)cc(=O)[nH]1` and write its reported inhibition.
A. 10.7

Q. Read the entry `COCCN(C(=O)CSc1nc2ccccc2o1)c1c(N)n(Cc2ccccc2)c(=O)[nH]c1=O` and write its reported inhibition.
A. 10.9

Q. Read the entry `NS(=O)(=O)c1ccc(CCNC(=O)c2cccc(S(=O)(=O)N3CCCC3)c2)cc1` and write its reported inhibition.
A. 17.3

Q. Read the entry `Cc1ccsc1/C=N/NC(=O)CN1CCN(Cc2ccccc2)CC1` and write its reported inhibition.
A. -0.88

Q. Read the entry `COc1ccc(NC(=O)c2cc(CC(C)C)on2)cc1OC` and write its reported inhibition.
A. 27.3

Q. Read the entry O=C(NC1CCCCC1)C1CCCN(S(=O)(=O)c2cccc3cccnc23)C1 (stereo unspecified) and write its reported inhibition.
A. -8.57

Q. Read the entry `O=C(NCc1ccccc1)c1nc(-c2cccs2)no1` and write its reported inhibition.
A. 15.8

Q. Read the entry `Cc1ccc(-n2c(C)cc(/C=N/NC(=O)c3ccncc3)c2C)c(C)c1` and write its reported inhibition.
A. 73.9

Q. Read the entry `Cc1ccc(/C=N/NC(=O)c2ccccn2)s1` and write its reported inhibition.
A. 59.8

Q. Read the entry `Cc1ccsc1/C=N/NC(=O)c1ccc([N+](=O)[O-])cc1` and write its reported inhibition.
A. -7.45

Q. Read the entry `CCOc1ccc2nc(NCCCO)[nH]c2c1` and write its reported inhibition.
A. 2.84

Q. Read the entry `O=C(Nc1ncccc1O)c1ccc2c(c1)OCCO2` and write its reported inhibition.
A. -9.11

Q. Read the entry CC(=O)N1c2ccc(S(=O)(=O)NCC3CCC(C(=O)NCc4ccccc4)CC3)cc2CC1C (stereo unspecified) and write its reported inhibition.
A. 14.7

Q. Read the entry CC1CN(c2nc3ccccn3c(=O)c2C=O)CC(C)O1 (stereo unspecified) and write its reported inhibition.
A. 1.76

Q. Read the entry `O=C(O)COc1ccc(Br)cc1CP(=O)(c1ccccc1)c1ccccc1` and write its reported inhibition.
A. -5.1

Q. Read the entry `Cc1nc2ccccc2c(=O)n1-c1cc([N+](=O)[O-])cc([N+](=O)[O-])c1` and write its reported inhibition.
A. 19.9

Q. Read the entry `COc1ccc(/C=C2\SC(=N)N(c3nccs3)C2=O)cc1OC` and write its reported inhibition.
A. -5.11

Q. Read the entry `CC(C)Cc1cc(C(=O)Nc2cc(Cl)ccc2Cl)no1` and write its reported inhibition.
A. 75.3

Q. Read the entry Cc1ccc(C2C(C#N)=C(N)Oc3n[nH]c(-c4cccnc4)c32)o1 (stereo unspecified) and write its reported inhibition.
A. -0.74

Q. Read the entry `Cc1c(C(=O)NCc2ccccc2CN2CCCC2)oc2ccc(F)cc12` and write its reported inhibition.
A. 42

Q. Read the entry `O=C(Nc1cccc2cccnc12)c1cccc([N+](=O)[O-])c1` and write its reported inhibition.
A. 14.7

Q. Read the entry `O=C(N/N=C/c1cccn1-c1ccccc1)c1ccncc1` and write its reported inhibition.
A. 52.4

Q. Read the entry `O=C(Cn1ccc2cc(S(=O)(=O)N3CCCC3)ccc21)NCc1ccco1` and write its reported inhibition.
A. 21.9

Q. Read the entry CC(=O)C1=C(C)Nc2ncnn2C1c1ccc(O)cc1 (stereo unspecified) and write its reported inhibition.
A. -8.89

Q. Read the entry CCOC(=O)C1(Cc2cccc(Cl)c2)CCCN(C(=O)c2ccoc2C)C1 (stereo unspecified) and write its reported inhibition.
A. 33.8

Q. Read the entry N#CC1=C(N)Oc2n[nH]c(-c3ccccc3)c2C1c1cccnc1 (stereo unspecified) and write its reported inhibition.
A. 9.98
